In this section, each of the binders is paired with its reported OD.
molecular target: T1, rat antithrombin (rat, UniProt Q8VHJ4); test: ELISA, sdAb coated, plasma 1/4, bound antithrombin probed with polyclonal anti-antithrombin; grade by OD
T1 construct: Native protein in plasma diluted 1/4; also called rat AT; antithrombin in rat plasma

Worked cases, answers included:
BINDER	ASSAY_METRIC	RESULT
KB-AT-006 (VHH, Monovalent anti-antithrombin single-domain antibody; also called sdAb KB-AT-006) VHH: QVQLQQSGGGLVQAGGSLRLSCAASGRTFSNNGMGWFRQAPGKEREFVAAISWSSGSTYYADSVKGRYTISRDNAKNTVYLQMNSLKPEDTAVYYCAARTRYNSGYFTRNYDYWGQGTQVTVSS	OD	0.1 to 0.5 od
KB-AT-003 (VHH, Monovalent anti-antithrombin single-domain antibody; also called sdAb KB-AT-003) VHH: QVQLVQSGGGLVQPGGSLRLSCAASALTFSSRAWAWYRQAPGKQRELVASITGGGTTNYADSVKGRFTISRDNAKNTVYLQMNSLKPEDTAVHYCNGYRYTYAWGQGTQVTVSS	OD	0.1 to 0.5 od

I'd like to know its OD. The binder in question is KB-AT-002 (VHH, Monovalent anti-antithrombin single-domain antibody; also called sdAb KB-AT-002) VHH: QVQLVQSGGGLVQAGGSLRLSCAASGRTFNNNGMGWFRQAPGKEREFVAAISWSGGSTYYADSVKGRYIMSRDNAKNTVYLQMNSLKPEDTAVYYCAARTRYNSGLFSRNYDYWGQGTQVTVSS
≥ 0.5 od

What OD value was documented for this binder, KB-AT-001 (VHH, Monovalent anti-antithrombin single-domain antibody; also called sdAb KB-AT-001) VHH: QVQLQQSGGDLAQRGGSLRLSCAASGRTFRNYVMGWFRQAPGKDPEFIAGINRSGAITYYGDSVKGRFTISRDNAKNTVSLQMNSLEPEDTAVYYCAAGETTWSIRRDDYDYWGQGTQVTVSS ?
0.1 to 0.5 od

// lookup OD for KB-AT-004 (VHH, Monovalent anti-antithrombin single-domain antibody; also called sdAb KB-AT-004) VHH: VQLQQSGGGLVQPGGSLRLSCAASAMTFSIRAWAWYRQAPGKQRELVASIGTGDITNYADSVKGRFTISRDNAKNTFYLQMNSLKPEDTAVYYCNGYRSTYAWGQGTQVTVSS
0.1 to 0.5 od
